Listed below: viability, T/C values for each entry.
- Test system: 377384-186-R-J1-PDC complex spheroid viability;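 also: spheroids exposed to compounds for seven days before readout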
- assay_procedure: Anticancer human tumor 377384-186-R-J1-PDC patient-derived pancreatic carcinoma cell line growth inhibition [RAS]
- condition_label: second compound 0.003 µM; first compound 0.00949 µM; stronger effect = lower value
Give just the numeric value; % need not be written.

compound | unit_text | viability, T/C
CC1(C)CCC(Nc2ncc(C(F)(F)F)c(-c3c[nH]c4c(P(C)(C)=O)c(C#N)ccc34)n2)CN1 (centres undefined) + CCn1c(-c2cc(N3CCN(C)CC3)cnc2C(C)OC)c2c3cc(ccc31)-c1csc(n1)CC(NC(=O)C1CC1C)C(=O)N1CCCC(N1)C(=O)OCC(C)(C)C2 | % | 10.4
CCc1c2c(nc3ccc(O)cc13)-c1cc3c(c(=O)n1C2)COC(=O)[C@]3(O)CC + CCn1c(-c2cc(N3CCN(C)CC3)cnc2C(C)OC)c2c3cc(ccc31)-c1csc(n1)CC(NC(=O)C1CC1C)C(=O)N1CCCC(N1)C(=O)OCC(C)(C)C2 | % | 4.82
CC1(C)CCC(Nc2ncc(C(F)(F)F)c(-c3c[nH]c4c(P(C)(C)=O)c(C#N)ccc34)n2)CN1 (centres undefined) + CCn1c(-c2cccnc2C(C)OC)c2c3cc(ccc31)N1CCOC(CC(NC(=O)C(C(C)C)N(C)C(=O)C3(F)CCN(C(=O)C#CC(C)(C)N(C)C)CC3)C(=O)N3CCCC(N3)C(=O)OCC(C)(C)C2)C1 | % | 37.5

Okay, next one:
Give its viability, T/C value. Item: CCc1c2c(nc3ccc(O)cc13)-c1cc3c(c(=O)n1C2)COC(=O)[C@]3(O)CC + CCn1c(-c2cccnc2C(C)OC)c2c3cc(ccc31)N1CCOC(CC(NC(=O)C(C(C)C)N(C)C(=O)C3(F)CCN(C(=O)C#CC(C)(C)N(C)C)CC3)C(=O)N3CCCC(N3)C(=O)OCC(C)(C)C2)C1 19.8

Entry source: PubChem BioAssay AID2060903
